Taken from paper PMC9611048.

experiment-notes: Determination of synthetic cannabinoids in rat urine by LC-MS/MS after dosing
Type: in vivo
reported-conditions: male, Sprague-Dawley, intravenous; rat urine, 2 h, 1 mg/kg tail vein injection
parameter-measured: concentration at 2 h (ng/mL)
Give bare numbers, in ng/mL.

Example compounds with recorded concentration at 2 h:
compound: COC(=O)[C@@H](NC(=O)c1nn(CCCCCF)c2ccccc12)C(C)C
units-label: ng/mL
reported-measurement: 8.68

compound: COC(=O)C(NC(=O)c1nn(Cc2ccc(F)cc2)c2ccccc12)C(C)C (stereo not drawn)
units-label: ng/mL
reported-measurement: 3.38

We now examine a further compound.
Please supply the value of reported concentration at 2 h for the item `CCCCCn1cc(C(=O)c2ccc(C)c3ccccc23)c2ccccc21`
0.2

###

experiment-notes: Determination of synthetic cannabinoids in rat urine by LC-MS/MS after dosing
Assay type: in vivo
reported-conditions: male, Sprague-Dawley, intravenous; rat urine, 24 h, 1 mg/kg tail vein injection
Please go through the items and note down their concentration at 24 h.
Report as: number unit

Example compounds with recorded concentration at 24 h:
compound: CCCCCn1cc(C(=O)c2ccc(C)c3ccccc23)c2ccccc21
concentration at 24 h: 0.06 ng/mL
//
compound: COC(=O)[C@@H](NC(=O)c1nn(CCCCCF)c2ccccc12)C(C)C
concentration at 24 h: 0.14 ng/mL

Please supply the value of reported concentration at 24 h for the item COC(=O)C(NC(=O)c1nn(Cc2ccc(F)cc2)c2ccccc12)C(C)C (stereo not drawn)
0.1 ng/mL

###

experiment-notes: Determination of synthetic cannabinoids in rat urine by LC-MS/MS after dosing
Type: in vivo
reported-conditions: male, Sprague-Dawley, intravenous; rat urine, 72 h, 1 mg/kg tail vein injection
parameter-measured: concentration at 72 h (ng/mL)
One number for each entry, in ng/mL.

given-smiles: CCCCCn1cc(C(=O)c2ccc(C)c3ccccc23)c2ccccc21
concentration at 72 h (ng/mL): 0.01

We now examine a further molecule.
Please supply the value of reported concentration at 72 h for the item `COC(=O)[C@@H](NC(=O)c1nn(CCCCCF)c2ccccc12)C(C)C`
0.01

###

experiment-notes: Determination of synthetic cannabinoids in rat plasma by LC-MS/MS after dosing
Format: in vivo
reported-conditions: male, Sprague-Dawley, intravenous, 1 mg/kg tail vein injection
Please go through the items and note down their concentration at 72 h.
Answers are plain numbers, in ng/mL.

compound: CCCCCn1cc(C(=O)c2ccc(C)c3ccccc23)c2ccccc21
concentration at 72 h / ng/mL: 0.08

We now examine a further compound.
Please supply the value of reported concentration at 72 h for the item COC(=O)C(NC(=O)c1nn(Cc2ccc(F)cc2)c2ccccc12)C(C)C (centres unmarked)
0.05

###

experiment-notes: Determination of synthetic cannabinoids in rat urine by LC-MS/MS after dosing
Format: in vivo
reported-conditions: male, Sprague-Dawley, intravenous; rat urine, 8 h, 1 mg/kg tail vein injection
parameter-measured: concentration at 8 h (ng/mL)
Numbers only, in ng/mL.

Each compound below has a recorded value; state its concentration at 8 h.
1. CCCCCn1cc(C(=O)c2ccc(C)c3ccccc23)c2ccccc21
2. COC(=O)C(NC(=O)c1nn(Cc2ccc(F)cc2)c2ccccc12)C(C)C (stereo not drawn)

[0.09, 0.19]

Please supply the value of reported concentration at 8 h for the item `COC(=O)[C@@H](NC(=O)c1nn(CCCCCF)c2ccccc12)C(C)C`
0.72

###

experiment-notes: Determination of synthetic cannabinoids in rat urine by LC-MS/MS after dosing
Assay type: in vivo
reported-conditions: male, Sprague-Dawley, intravenous; rat urine, 4 h, 1 mg/kg tail vein injection
Description: The Sprague–Dawley male rats (n = 12, 6 weeks, weighing 190–210 g) were obtained from Zhejiang Academy of Medical Sciences (Hangzhou, Zhejiang, China) and acclimatized for 1 week before exposure in the experimental room (temperature 23 ± 2 ℃, humidity 55 ± 10%, 12 h light–dark cycle). […] The separated analytes were quantified using an AB SCIEX 6500^+ quadrupole ion trap mass spectrometer (QTRAP MS) under the multiple reaction monitoring (MRM) mode with negative ion channels (Table 2). […]
parameter-measured: concentration at 4 h (ng/mL)
Answers are plain numbers, in ng/mL.

Example molecules with recorded concentration at 4 h:
molecule: CCCCCn1cc(C(=O)c2ccc(C)c3ccccc23)c2ccccc21
reported-measurement: 0.12

molecule: COC(=O)C(NC(=O)c1nn(Cc2ccc(F)cc2)c2ccccc12)C(C)C (stereo not drawn)
reported-measurement: 0.41

Please supply the value of reported concentration at 4 h for the item `COC(=O)[C@@H](NC(=O)c1nn(CCCCCF)c2ccccc12)C(C)C`
1.11
